molecular target: DLG2_3, Q15700; assay: holdup assay; design: key: below the threshold = too weak to quantify, mostly under pKd 3.1 to 4; details: plain residues with an end cap or a label only (N-terminal biotin on a linker: ado-ado)
The entries below come with measured pKd values attached.
Give your answer as a number; write no unit.

Some entries whose results are on file:
{"columns": ["binder", "readoutNumber"],
 "data": [
  ["THREVKFTSL [CD46, P15529]", 4.38],
  ["DLLGGGSDSI [TNRC6B, Q9UPQ9]", 3.62],
  ["TKDKVQETQI [LRRC4, Q9HBW1]", 4.16]
]}

# next binder below
Q. Fill blank: measured pKd of the binder KPDKQEEFYA [SDC3, O75056] is ____.
A. 3.64

The origin of these recorded values is paper PMC9482650.
